Listed here: items and their measured Kd.
# Measured target: T1, mature human TGF-β1 (human, UniProt P01137 279-390)
# T1 construct: Bought protein (R&D Systems, Cat # 240-B/CF); also called TGF Beta 1; TGF-b1
# T1 sequence (P01137 279-390 limits assumed): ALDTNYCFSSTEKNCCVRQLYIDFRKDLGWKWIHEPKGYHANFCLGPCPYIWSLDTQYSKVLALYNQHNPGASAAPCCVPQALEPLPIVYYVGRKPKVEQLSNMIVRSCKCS
# Measurement notes: KinExA 3000, equilibrium in solution
# Protocol: A KinExA 3000 instrument (Sapidyne Inst. Inc.) measures binding kinetics. Briefly, antigen is covalently-coupled to azlactone beads and the binding of an invention free Fab to the beads is detected on the instrument. […] After incubation, free Fab in each equilibrated sample is determined on KinExA 3000 per manufacturer instructions. Kd values are determined using KinExA 3000 software. […] The koff is calculated using the formula K_{d=k}off/kₒₙ. […]
Note: unit pM is implicit; provide only the numeric part.

// known answers, use as guide
>  <Binder>
Fab 12.8 (Fab, V domains shown, The mAb was made by linking the Fab to an IgG4 Fc region, so the mAb's chains are named; The heavy chain entry also holds the Fc, which is not in the Fab) VH: QVQLVQSGAEVKKPGASVKVSCKASGYTFTSYWMNWVRQAPGQGLEWMGQIFPALGSTNYNEMFEGRVTMTTDTSTSTAYMELRSLRSDDTAVYYCARGIGNYALDAMDYWGQGTLVTVSS VL: DIQMTQSPSSLSASVGDRVTITCRASESVDWYGNSFMHWYQQKPGKAPKLLIYYASNLESGVPSRFSGSGSGTDFTLTISSLQPEDFATYYCQQNAEDPLTFGGGTKVEIKR

>  <Result units>
pM

>  <Kd>
0.22

$$$$
>  <Binder>
Fab 12.7 (Fab, V domains shown, The mAb was made by linking the Fab to an IgG4 Fc region, so the mAb's chains are named; The heavy chain entry also holds the Fc, which is not in the Fab) VH: QVQLVQSGAEVKKPGASVKVSCKASGYTFTSEWMNWVRQAPGQGLEWMGQIFPALGSTNYNEMYEGRVTMTTDTSTSTAYMELRSLRSDDTAVYYCARGIGNYALDAMDYWGQGTLVTVSS VL: DIQMTQSPSSLSASVGDRVTITCRASESVDFYGNSFMHWYQQKPGKAPKLLIYLASNLESGVPSRFSGSGSGTDFTLTISSLQPEDFATYYCQQNIEDPLTFGGGTKVEIKR

>  <Result units>
pM

>  <Kd>
0.09

$$$$
>  <Binder>
Fab 4.17 (Fab, V domains shown, The mAb was made by linking the Fab to an IgG4 Fc region, so the mAb's chains are named; The heavy chain entry also holds the Fc, which is not in the Fab) VH: QVQLVQSGAEVKKPGASVKVSCKASGYTFTSYWMNWVRQAPGQGLEWMGQIFPFSGSTNYNEMFEGRVTMTTDTSTSTAYMELRSLRSDDTAVYYCARGIGNYALDAMDYWGQGTLVTVSS VL: DIQMTQSPSSLSASVGDRVTITCRASESVDFWGNSFMHWYQQKPGKAPKLLIYLASNLESGVPSRFSGSGSGTDFTLTISSLQPEDFATYYCQQNAEDPLTFGGGTKVEIKR

>  <Result units>
pM

>  <Kd>
0.28

$$$$

// sample Fab 3.A (Fab, V domains shown, The mAb was made by linking the Fab to an IgG4 Fc region, so the mAb's chains are named; The heavy chain entry also holds the Fc, which is not in the Fab) VH: QVQLVQSGAEVKKPGASVKVSCKASGYTFTSYWMNWVRQAPGQGLEWMGQIFPASGSTNYGEMFEGRVTMTTDTSTSTAYMELRSLRSDDTAVYYCARGIGNYALDAMDYWGQGTLVTVSS VL: DIQMTQSPSSLSASVGDRVTITCRASESVDFWGNSFMHWYQQKPGKAPKLLIYLASNLESGVPSRFSGSGSGTDFTLTISSLQPEDFATYYCQQNIEDPLTFGGGTKVEIKR , its Kd was 15
